# experimental_protocol: Pharmacokinetic study in rats after oral administration of B. striata extract (UPLC-MS/MS of plasma)
# Assay type: in vivo, Sprague-Dawley rats
# details: Sprague-Dawley; oral administration of B. striata extract 22.2 g/kg, rat plasma, n = 6
Kindly state Cmax for each of the entries shown.
Param answer (str): number followed by unit.

Please review the entries below; each comes with its answer.
1. CC(C)C[C@@](O)(CC(=O)OCc1ccc(O[C@@H]2O[C@H](CO)[C@@H](O)[C@H](O)[C@H]2O)cc1)C(=O)OCc1ccc(O[C@@H]2O[C@H](CO)[C@@H](O)[C@H](O)[C@H]2O)cc1 : 3300 ng/mL
2. CC(C)C[C@@](O)(CC(=O)O)C(=O)OCc1ccc(O[C@@H]2O[C@H](CO)[C@@H](O)[C@H](O)[C@H]2O)cc1 [Gymnoside I, gymnoside I] : 3060 ng/mL

Turning now to a further molecule:
The recorded Cmax for entry CC(C)C[C@@](O)(CC(=O)O)C(=O)O equals 23200 ng/mL

These entries and their values trace back to paper PMC6854942.
